# protocolSummary: Human HepG2 cell viability assay in 384 well format
# Assay type: toxicity, cell-based
# Set-up: dose 125 nL, time 70.5 hour; concentration not given beside the values
# settings: HepG2 cells, read-out: Inhibition
endpointName: cytotoxicity at 70.5 h (%)
Entry rule: numbers only, all in %.

Task: Indicate its recorded cytotoxicity at 70.5 h; the compound in question is CC(NC(=O)Cn1cccn1)c1ccc2c(c1)OCCO2 (stereo not given)
Result: -11.1

Task: Indicate its recorded cytotoxicity at 70.5 h; the compound in question is O=C(NCCn1cccn1)C1CCC(=O)N(CC2CCCCC2)C1 (stereo not given)
Result: 18

Task: Indicate its recorded cytotoxicity at 70.5 h; the compound in question is O=C(Cc1ccccn1)N1CCC(c2noc(-c3ccncc3)n2)CC1
Result: 5.1

Task: Indicate its recorded cytotoxicity at 70.5 h; the compound in question is Clc1ccc(CN2CCC3(CC2)CC(c2cccnc2)=NO3)cc1
Result: 3.85

Task: Indicate its recorded cytotoxicity at 70.5 h; the compound in question is CC1CCCN(c2nccn3c(=O)[nH]nc23)C1 (stereo not given)
Result: -7.92

Task: Indicate its recorded cytotoxicity at 70.5 h; the compound in question is COc1cccc(C(=O)N2CCc3nc(C4CCCN4)ncc3C2)c1 (stereo not given)
Result: -1.65

Task: Indicate its recorded cytotoxicity at 70.5 h; the compound in question is Cc1occc1C(=O)N1CCO[C@H]2[C@H](Oc3cccnc3)CC[C@@H]21
Result: 14.6

Task: Indicate its recorded cytotoxicity at 70.5 h; the compound in question is CCC(COC)NC(=O)N1CCC(n2ccc(C(F)(F)F)n2)CC1 (stereo not given)
Result: -104

Task: Indicate its recorded cytotoxicity at 70.5 h; the compound in question is CNc1cc(C)nc(C2CN(Cc3ccc(Cl)cn3)CCO2)c1 (stereo not given)
Result: -5.55

Task: Indicate its recorded cytotoxicity at 70.5 h; the compound in question is CC(=O)N1CCC(NCc2cccnc2N(C)Cc2ccccc2)CC1
Result: -6.72

Task: Indicate its recorded cytotoxicity at 70.5 h; the compound in question is CCNS(=O)(=O)c1ccc2c(c1)c(=O)n(CC)c(=O)n2CC
Result: 2

Task: Indicate its recorded cytotoxicity at 70.5 h; the compound in question is COC(=O)c1ccc(S(=O)(=O)NCc2cccnc2N(C)C)cc1
Result: 29.6

Task: Indicate its recorded cytotoxicity at 70.5 h; the compound in question is NC(=O)C1CCN(C(=O)c2ccn(-c3ccc(F)cc3)n2)C1 (stereo not given)
Result: -1.48

Task: Indicate its recorded cytotoxicity at 70.5 h; the compound in question is O=C1CCCCCN1Cc1ncnn1Cc1c(F)cccc1Cl
Result: -5.62

Task: Indicate its recorded cytotoxicity at 70.5 h; the compound in question is Cc1ccccc1CN(CC(=O)O)C(=O)COCC1CC1
Result: 0.683

---

# protocolSummary: Human HepG2 cell viability assay in 384 well format
# Format: toxicity, cell-based
# Set-up: dose 125 nL, time 70.5 hour; concentration not given beside the values
# settings: HepG2 cells, read-out: Inhibition
endpointName: cytotoxicity at 70.5 h (%)
Entry rule: numbers only, all in %.

Task: Indicate its recorded cytotoxicity at 70.5 h; the compound in question is Cc1ccccc1-n1cc(-c2ccnc(N[C@H](CO)C(C)C)n2)cn1
Result: -14.1

Task: Indicate its recorded cytotoxicity at 70.5 h; the compound in question is CC1c2ncc(CNC(=O)C3CC3)n2CCN1Cc1cccnc1 (stereo unspecified)
Result: -5.38

Task: Indicate its recorded cytotoxicity at 70.5 h; the compound in question is O=C1N(c2ccccc2)C[C@H]2CN(C3CCC3)CCN12
Result: -3.05

Task: Indicate its recorded cytotoxicity at 70.5 h; the compound in question is CCc1nccn1-c1cncc(C2CCCN2Cc2ccccc2)n1 (stereo unspecified)
Result: -5.36

Task: Indicate its recorded cytotoxicity at 70.5 h; the compound in question is CN(C)Cc1ccccc1NC(=O)c1ccc(C#N)cc1
Result: -7.54

Task: Indicate its recorded cytotoxicity at 70.5 h; the compound in question is Cc1nn(CCCNC(=O)C2CCN(S(C)(=O)=O)CC2)cc1Cl
Result: 36.7

Task: Indicate its recorded cytotoxicity at 70.5 h; the compound in question is CCn1ccnc1CN1CCN(CC(=O)NC2CCOCC2)CC1
Result: 25.6

Task: Indicate its recorded cytotoxicity at 70.5 h; the compound in question is Cc1cc(C)c2[nH]c(=O)c(CN3CCC(O)(CN(C)C)C3)cc2c1 (stereo unspecified)
Result: -15.6

Task: Indicate its recorded cytotoxicity at 70.5 h; the compound in question is COCCN1C[C@@H]2CN(c3ncc(F)cn3)C[C@@H]2C1=O
Result: -47.2

Task: Indicate its recorded cytotoxicity at 70.5 h; the compound in question is Cc1ccc(C)c(OC2CCN(C(=O)NCC(=O)N3CCCC3)CC2)c1
Result: -5.3

Task: Indicate its recorded cytotoxicity at 70.5 h; the compound in question is Cc1nnc(CN2CCC(Oc3ccc(C)c(C)c3)CC2)o1
Result: -4.89

Task: Indicate its recorded cytotoxicity at 70.5 h; the compound in question is Cn1cc(C(=O)Nc2ccc(CC(=O)NC3CC3)cc2)nn1
Result: -6.27

Task: Indicate its recorded cytotoxicity at 70.5 h; the compound in question is CC(C)CNC(=O)C1=NOC2(CCN(Cc3ccc(C(C)C)cc3)C2)C1 (stereo unspecified)
Result: -1.12

Task: Indicate its recorded cytotoxicity at 70.5 h; the compound in question is CN(C)CC1CSCCCN1S(=O)(=O)Cc1cccc(F)c1 (stereo unspecified)
Result: -3.38

Task: Indicate its recorded cytotoxicity at 70.5 h; the compound in question is CN1CCOC(CNCc2nc(-c3cccnc3)no2)C1 (stereo unspecified)
Result: -6.13

Task: Indicate its recorded cytotoxicity at 70.5 h; the compound in question is COc1ccc(OCCN(C)CCCn2cnc3c(N)ncnc32)cc1
Result: -5.85

Task: Indicate its recorded cytotoxicity at 70.5 h; the compound in question is CC(C)NC(=O)CS(=O)(=O)Cc1coc(-c2ccc(F)cc2)n1
Result: -17.8

Task: Indicate its recorded cytotoxicity at 70.5 h; the compound in question is O=C(C1SCCc2sccc21)N1CCN(C2CC2)C(=O)C1 (stereo unspecified)
Result: -5.13

Task: Indicate its recorded cytotoxicity at 70.5 h; the compound in question is CC(C)N(CCNc1nc(C2CCCC2)nc2c1cnn2C)C(C)C
Result: -1.41

Task: Indicate its recorded cytotoxicity at 70.5 h; the compound in question is Cc1nc(CN2CCCC(N(C)Cc3c(C)noc3C)C2)no1 (stereo unspecified)
Result: 10.6

Task: Indicate its recorded cytotoxicity at 70.5 h; the compound in question is Cc1cnn(CC2CCCN2C(=O)CCc2ccsc2)c1 (stereo unspecified)
Result: -5.3

Task: Indicate its recorded cytotoxicity at 70.5 h; the compound in question is CC(c1nc(C2CC2)no1)N1CCN(Cc2ccccc2)CC1 (stereo unspecified)
Result: -4.04

Task: Indicate its recorded cytotoxicity at 70.5 h; the compound in question is COc1ccc(NC(=O)c2cnc(N(C)C3CCCCC3)nc2N)cc1
Result: 2.82

Task: Indicate its recorded cytotoxicity at 70.5 h; the compound in question is CC(C)(C)NC(=O)CNC(=O)CCc1ccccc1Br
Result: -8.13

Task: Indicate its recorded cytotoxicity at 70.5 h; the compound in question is CN1C(=O)CC(C(=O)O)C12CCN(Cc1ccc(Cl)c(F)c1)CC2 (stereo unspecified)
Result: 9.92

Task: Indicate its recorded cytotoxicity at 70.5 h; the compound in question is Cc1ccc2nc(CN(C)Cc3[nH]nc4c3CCC4)[nH]c2c1C
Result: 6.49

Task: Indicate its recorded cytotoxicity at 70.5 h; the compound in question is Cc1noc(-c2cccnc2N(C)Cc2cscn2)n1
Result: -5.46

Task: Indicate its recorded cytotoxicity at 70.5 h; the compound in question is COc1cccc2c1CCC2NC(=O)NCc1csc(N(C)C)n1 (stereo unspecified)
Result: 9.68

Task: Indicate its recorded cytotoxicity at 70.5 h; the compound in question is Cc1cnn(CCNCc2nnc(-c3ccccc3)o2)c1
Result: -1.2

Task: Indicate its recorded cytotoxicity at 70.5 h; the compound in question is CC(=O)NCCNC(=O)CN1CCOC(Cn2cccn2)C1 (stereo unspecified)
Result: 0.989

Task: Indicate its recorded cytotoxicity at 70.5 h; the compound in question is OCCOCCN1CCCC1c1cccc(Cl)c1 (stereo unspecified)
Result: -3.17

Task: Indicate its recorded cytotoxicity at 70.5 h; the compound in question is CC(C)NC(=O)CCN1CCCC1c1cccc2c1OCCO2 (stereo unspecified)
Result: -8.96

Task: Indicate its recorded cytotoxicity at 70.5 h; the compound in question is Cc1nc(CN2CCCC2c2nc(C(C)C)no2)cs1 (stereo unspecified)
Result: -2.96

Task: Indicate its recorded cytotoxicity at 70.5 h; the compound in question is Cc1cc(CN2CCN(C(=O)NC(C)c3ccc(C)o3)CC2)on1 (stereo unspecified)
Result: -9.49

Task: Indicate its recorded cytotoxicity at 70.5 h; the compound in question is O=C(c1ccoc1)N1CCn2nc(CN3CCSCC3)cc2C1
Result: 17.6

Task: Indicate its recorded cytotoxicity at 70.5 h; the compound in question is Cc1nccn1-c1ccc(C(C)NCCc2ccccn2)cc1 (stereo unspecified)
Result: 0.00833

Cited source: ChEMBL document CHEMBL3507680
